Data provenance is patent US20250147035A1.

target: T1, pSAKLDEESILKQ-Biotin; assay: Octet (BLI), fixed reagent concentration;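 also: octet binding of candidate PTM-specific affinity reagents, each at one fixed concentration, to biotinylated phospho-Thr or phospho-Ser peptides, with unmodified biotinylated peptides serving as controls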
T1 peptide: [pS]AKLDEESILKQ-{Biotin′}
Primed or numbered codes have the meaning given here. Where no end group is shown, it is not given here. [ ]: non-standard residue; d: D form. pS = N[C@@H](COP(=O)(O)O)C(=O)O; Biotin′ = not defined here
Listed next: entries and their corresponding Octet binding assay response.
Please reply with the value in numeric form only.

Study these solved cases before continuing.
{"binder": "PM11 (Human/TOPBP1) (other) MVYNMVMSDVTISCTSLEKEKREEVHKYVQMMGGRVYRDLNVSVTHLIAGEVGSKKYLVAANLKKPILLPSWIKTLWEKSQEKKITRYTD", "Octet binding assay response": 0.2}
{"binder": "PM17 (Human/DIDO1) (other) MTLFLSRLSTIWKGFINMQSVAKFVTKAYPVSGCFDYLSEDLPDTIHIGGRIAPKTVWDYVGKLKSSVSKELCLIRFHPATEEEEVAYISLYSYFSSRGRFGVVANNNRHVKDLYLIPLSAQDPVPSKLLPFEGPGLESPRPNIILGLVICQKIKRPANS", "Octet binding assay response": 0.2}
{"binder": "PM23 (Human/Scp1) (other) MAFEELRVQAENARLDMHFKLKEDHEKIQHLQEEYKKEVNDKENQVSLLLIQRTEKENKMKDLTFLLEESRDKVNQLEDKTKLQDENVKELNKKKDHLTSELEDTKMSLQRSMNTQKALEEDLQIATKTIYQLTEEKEAQMEEFNKAKTDHSFMVTELKATTCTLEELLRTEQQRLVKNED", "Octet binding assay response": 0.1}

Looking up PM14 (Saccharomyces cerevisiae/RAD53) (other) MEDQDGKIQGFKIPAHAPIRYTQPKSIEAETREQKLLHSNNTENVKSSKKKGNGRFLTLKPLPDSIIQESLEIQQGVNPFFIGRSEDCNCKIEDNRLSRVHCFIFKKRHAVGKSMYESPAQGLDDIWYCHTGTNVSYLNNNRMIQGTKFLLQDGDEIKIIWDKNNKFVIGFKVEINDTTGLFNEGLGMLQEQRVVLKQTAEEKDLVKKLTQMMAAQRANQPSASSSSMSAKKPPVSDTNNNGNNSVLNDLVESPINANTGNILKRIHSVSLSQSQIDPSKKVKRAKLDQTSKGPENLQFS , I see its Octet binding assay response listed as 0.2
